# Tested on: CCRIS mutagenicity, Ames/micronucleus/aberration tests
# method-notes: CCRIS mutagenicity studies
# test-conditions: Test System: AMES SALMONELLA TYPHIMURIUM; Strain/Indicator: TA100; Metabolic Activation: NONE; Method: STANDARD PLATE
Active and inactive are the calls of the source. How the calls were made is not given here.
Hi there, use one of these labels in your reply, thanks! true for active, false for inactive

• Nc1ccccc1[N+](=O)[O-] = false
• O=C(c1ccccc1)[C@H]1O[C@H]1c1ccc(F)cc1 = false
• CCN(CC)c1ccc(C(=C2C=CC(=[N+](CC)CC)C=C2)c2ccc(N(CC)CC)cc2)cc1 = false
• CN1CCN(c2ccc3nc(CCc4ccc5nc(-c6ccc(N(CCCl)CCCl)cc6)[nH]c5c4)[nH]c3c2)CC1 = false
• CC(C)CCCC(C)C1CCC2C3CC=C4CC(OCCO)CCC4(C)C3CCC12C (stereo not given) = false
• CNc1snc2ccccc12 = false
• COc1ccc2[nH]cc(CCNC(C)=O)c2c1 = false
• CCOc1ccc(NO)cc1 = false

query: What classification did ONc1cccc(-c2ccccc2)c1 end up with in this test?
result: false

query: What classification did COc1cc(N)c(OC)cc1N end up with in this test?
result: false

query: What classification did O=[N+]([O-])c1c2ccccc2cc2c1ccc1ccccc12 end up with in this test?
result: false

* * *

# System: CCRIS mutagenicity, Ames/micronucleus/aberration tests
# method-notes: CCRIS mutagenicity studies
# test-conditions: Test System: AMES SALMONELLA TYPHIMURIUM; Strain/Indicator: TA1537; Metabolic Activation: RAT, LIVER, S-9, PHENOBARBITAL; Method: STANDARD PLATE
Activity calls are given as the source filed them. The rule behind the calls is not given here.
measured-endpoint: mutagenic call

- C[n+]1cccc(-c2ccc[n+](C)c2)c1: inactive; negative
- CCOC(=O)COc1ccc2c(=O)cc(-c3ccccc3)oc2c1: inactive; negative
- [Pb]: inactive; negative

* * *

# Tested on: CCRIS mutagenicity, Ames/micronucleus/aberration tests
# method-notes: CCRIS mutagenicity studies
# test-conditions: Test System: E. COLI; Strain/Indicator: WP2 UVRA (PKM101); Metabolic Activation: NONE; Method: STANDARD PLATE
Activity calls are given as the source filed them. The rule behind the calls is not given here.
measured-endpoint: mutagenic call

Below, each entry is followed by its recorded mutagenic call result.
• NNc1ccccc1 = active; positive
• O=BOO = active; positive
• CC(=O)CC(=O)Nc1ccc(C)cc1 = inactive; negative
• NCCCNCCCCNCCCN = inactive; negative
• CC(Br)Br = inactive; negative
• COC(=O)Nc1nc2ccc(OS(=O)(=O)c3ccc(F)cc3)cc2[nH]1 = inactive; negative
• Oc1cccc(O)c1O = active; positive
• C[n+]1c2ccccc2nc2ccccc21 = active; positive

Consider the record given below.
Lab note: measured mutagenic call of O=CCCCC=O was active; positive

* * *

# Test system: CCRIS mutagenicity, Ames/micronucleus/aberration tests
# method-notes: CCRIS mutagenicity studies
# test-conditions: Test System: AMES SALMONELLA TYPHIMURIUM; Strain/Indicator: TA100; Metabolic Activation: RAT, LIVER, S-9, AROCLOR 1254
Activity calls are given as the source filed them. The rule behind the calls is not given here.
Hi there, use one of these labels in your reply, thanks! yes for active, no for inactive

Illustrative cases are given below, each with its answer.
* CC(=O)OO[N+](=O)[O-] | yes
* Nc1ccccc1[N+](=O)[O-] | no
* OCCOCCO | no

query: What classification did CCCC(=O)Nc1ccc(OCC(O)CNC(C)C)c(C(C)=O)c1 (stereo not drawn) end up with in this test?
result: no

query: What classification did c1ccc2c(c1)-c1cccc3c1c-2cc1ccccc13 end up with in this test?
result: yes

query: What classification did C#CCO end up with in this test?
result: no

query: What classification did C[As+](C)(C)CC(=O)[O-] end up with in this test?
result: no

* * *

# Tested on: CCRIS mutagenicity, Ames/micronucleus/aberration tests
# method-notes: CCRIS mutagenicity studies
# test-conditions: Test System: AMES SALMONELLA TYPHIMURIUM; Strain/Indicator: TA1538; Metabolic Activation: NONE; Method: STANDARD PLATE
The source made the active and inactive calls. How the calls were made is not given here.
Hi there, use one of these labels in your reply, thanks! yes = active, no = inactive

Illustrative cases are given below, each with its answer.
* O=NN1CCC[C@H]1c1cccnc1 | no
* COc1ccc(N)c(OC)c1 | no
* CCN(CC)c1ccc(C(=C2C=CC(=[N+](CC)CC)C=C2)c2ccc(N(CC)CC)cc2)cc1 | no
* COc1cccc2c(NCCCNCCCl)c3ccccc3nc12 | yes

query: What classification did COc1cc(N)c([N+](=O)[O-])cc1N end up with in this test?
result: yes

query: What classification did CC(C)C1=CC2=CC[C@@H]3[C@](C)(CCC[C@@]3(C)C(=O)O)[C@H]2CC1 end up with in this test?
result: no

query: What classification did ONc1ccc2c(c1)Cc1ccccc1-2 end up with in this test?
result: yes

query: What classification did C=CC(=O)OC(C)(C)C end up with in this test?
result: no

query: What classification did C[CH2][Ge]([Cl])([CH2]C)[CH2]C end up with in this test?
result: no

query: What classification did CSCCC(=O)N1[C@@H](c2ccccc2O)SC[C@H]1C(=O)O end up with in this test?
result: no

query: What classification did C[n+]1c2ccccc2nc2ccccc21 end up with in this test?
result: no

query: What classification did CCN(N=O)c1ccccc1 end up with in this test?
result: no

query: What classification did CC(C)CC(C)Nc1ccc(Nc2ccccc2)cc1 (stereo not drawn) end up with in this test?
result: no

* * *

# Tested on: CCRIS mutagenicity, Ames/micronucleus/aberration tests
# method-notes: CCRIS mutagenicity studies
# test-conditions: Test System: AMES SALMONELLA TYPHIMURIUM; Strain/Indicator: TA1535; Metabolic Activation: NONE; Method: STANDARD PLATE
The source made the active and inactive calls. No rule for the calls is given here.
Hi there, use one of these labels in your reply, thanks! yes (1) = active, no (0) = inactive

- Cc1ccc(N=Cc2cccc3cccnc23)c(C(=O)O)c1: no (0)
- OC[C@H]1OC(O[C@H]2[C@H](O)[C@@H](O)C(O[C@H]3[C@H](O)[C@@H](O)[C@@H](O)O[C@@H]3CO)O[C@@H]2CO)[C@H](O)[C@@H](O)[C@@H]1O (stereo partly specified): no (0)

Now consider a different compound.
query: What classification did CC(C)NNC(=O)c1ccncc1 end up with in this test?
result: no (0)

* * *

# Tested on: CCRIS mutagenicity, Ames/micronucleus/aberration tests
# method-notes: CCRIS mutagenicity studies
# test-conditions: Test System: AMES SALMONELLA TYPHIMURIUM; Strain/Indicator: TA98; Metabolic Activation: RAT, LIVER, S-9, AROCLOR 1254 (30%); Method: PREINCUBATION
Activity calls are given as the source filed them. No rule for the calls is given here.
Hi there, use one of these labels in your reply, thanks! Yes = active, No = inactive

Illustrative cases are given below, each with its answer.
* COc1ccc(N)c(OC)c1 | Yes
* c1ccc(Nc2ccccc2)cc1 | No
* CC(C)(Cl)[N+](=O)[O-] | No

query: What classification did S=P(N1CC1)(N1CC1)N1CC1 end up with in this test?
result: No

query: What classification did N#CCO end up with in this test?
result: No

query: What classification did O=C1c2ccccc2C(=O)C1(O)O end up with in this test?
result: No

query: What classification did COC(=O)c1ccc(C)cc1 end up with in this test?
result: No

query: What classification did Cc1cc(O)ccc1Cl end up with in this test?
result: No

query: What classification did Cc1ccccc1Br end up with in this test?
result: No

query: What classification did Clc1cc2c3nc4[n-]c(nc5nc(nc6nc(nc([n-]3)c2c(Cl)c1Cl)-c1c(Cl)c(Cl)c(Cl)c(Cl)c1-6)-c1c(Cl)c(Cl)c(Cl)c(Cl)c1-5)c1c(Cl)c(Cl)c(Cl)c(Cl)c41.[Cu+2] end up with in this test?
result: Yes

query: What classification did CCCCCCCC(=O)Cl end up with in this test?
result: No

query: What classification did CCN(CC)CCNc1ccc(CO)c2sc3ccccc3c(=O)c12 end up with in this test?
result: Yes

* * *

# Tested on: CCRIS mutagenicity, Ames/micronucleus/aberration tests
# method-notes: CCRIS mutagenicity studies
# test-conditions: Test System: AMES SALMONELLA TYPHIMURIUM; Strain/Indicator: TA1537; Metabolic Activation: HAMSTER, LIVER, S-9, AROCLOR 1254 (10%); Method: STANDARD PLATE
Activity calls are given as the source filed them. No rule for the calls is given here.
Hi there, use one of these labels in your reply, thanks! y (active), n (inactive)

Illustrative cases are given below, each with its answer.
• CCCCC(CC)COC(=O)c1ccc(N(C)C)c([N+](=O)[O-])c1 (stereo not given) = y
• CCN(CC)c1ccc(C(=C2C=CC(=[N+](CC)CC)C=C2)c2ccc(N(CC)CC)cc2)cc1 = n
• C[C@]12C=CC(=O)C=C1CC[C@@H]1[C@@H]2C(=O)C[C@@]2(C)[C@H]1CC[C@]2(O)C(=O)CO = n
• C[CH2][Ge]([Cl])([CH2]C)[CH2]C = n

query: What classification did Oc1ccccc1-c1ccccc1 end up with in this test?
result: n
